meta.source: the supplement of paper PMC13380429

For each entry below, report its cell viability value.
tested on: Vero E6; experiment: cell viability relative to DMSO; higher = less toxic; settings: 72 h; 100 nM
Unit % implied. Number only.

Field request: cell viability | item: O[C@H]([C@H](O)[C@@H]1CO1)[C@H]1CO1 [dianhydrogalactitol]
93.2

Field request: cell viability | item: CCNC(=O)c1noc(-c2cc(C(C)C)c(O)cc2O)c1-c1ccc(CN2CCOCC2)cc1
47.1

Field request: cell viability | item: CCCCC(CC)CNC(=N)NC(=N)NCCCCCCNC(=N)NC(=N)NCC(CC)CCCC (stereo not drawn)
93.3

Field request: cell viability | item: CCn1c(-c2nonc2N)nc2cncc(C(=O)N3CC[C@H](N)C3)c21
95.3

Field request: cell viability | item: CCOc1cc2ncc(C#N)c(Nc3ccc(OCc4ccccn4)c(Cl)c3)c2cc1NC(=O)/C=C/CN(C)C
90.9

Field request: cell viability | item: COc1ccc2cc([C@H](C)C(=O)O)ccc2c1
98.2

Field request: cell viability | item: Cc1ccc2c(c1CCC(=O)O)CC[C@@H](NS(=O)(=O)c1ccc(Cl)cc1)C2
95.6

Field request: cell viability | item: N#C/C(=C\c1cccn1S(=O)(=O)c1cccc([N+](=O)[O-])c1)S(=O)(=O)c1ccc(F)cc1
96.4
